tested_system: human ADRA2B receptor (Homo sapiens)
Construct: expressed in transfected cells
experimental_details: ADRA2B arrestin agonist assay
Format: cell-based
protocol_conditions: read-out: Beta-Arrestin - Human Alpha2B EC50
Method: ADRA2A and ADRA2B Arrestin Agonist Assay Method The arrestin assay uses frozen CHO-K1 cell lines stably expressing human ADRA2A and ADRA2B receptors. Cells are frozen following normal cell freezing protocols. Briefly, cells are washed with PBS and then dissociated with 0.25% trypsin. […] On the day of the assay, agonists are diluted in Opti-MEM to 3.5x of the final assay concentration. […] Plates are read on an Envision luminescence plate reader.
experimental_readout: EC50

Q) Hello, please tell me recorded EC50 for this one: Cc1cccc([C@H](Cc2cn[nH]c2)c2c[nH]cn2)c1C [Compound 233]
A) < 10 nM

Q) Determine from records and report EC50 for Cc1cccc([C@@H](Cc2ccncc2)c2c[nH]cn2)c1C [Compound 320]
A) > 500 nM

Q) Answer with reported EC50 of Cc1cccc([C@H](Cc2ccncc2)c2c[nH]cn2)c1C [Compound 319]
A) < 10 nM

* * *

tested_system: human ADRA2B receptor (Homo sapiens)
Construct: expressed in transfected cells
experimental_details: ADRA2B arrestin agonist assay
Assay type: cell-based
protocol_conditions: CHO-K1 cells stably expressing human ADRA2B; read-out: Beta-Arrestin - Human Alpha2B EC50
pEC50: −log10 of the molar value.
What pEC50 was measured for each of the following?

Q) # return recorded pEC50 for input Cc1cccc(C(Cc2cnc3[nH]ccc3c2)c2c[nH]cn2)c1C (centres unmarked)
A) > 8.00

Q) Could you please provide reported pEC50 for `COc1nccc(C[C@@H](c2c[nH]cn2)c2cccc(C)c2OC)n1` ? Thanks!
A) > 8.00

Q) Note pEC50 for the compound shown: COc1c(C)cccc1C(Cc1cccc(C)n1)c1c[nH]cn1 (centres unmarked)
A) 6.30 to 7.30

Q) In one line, give reported pEC50 of the entry Cc1cccc(C(Cc2ccnc(C3CCO3)n2)c2c[nH]cn2)c1C (centres unmarked) .
A) > 8.00

Q) Using the record for Cc1cccc(C(Cc2ccsn2)c2c[nH]cn2)c1C (centres unmarked) , state its measured pEC50.
A) > 8.00

* * *

tested_system: human ADRA2B receptor (Homo sapiens, UniProt P18089)
Construct: expressed in transfected cells
Sequence (P18089 1-450): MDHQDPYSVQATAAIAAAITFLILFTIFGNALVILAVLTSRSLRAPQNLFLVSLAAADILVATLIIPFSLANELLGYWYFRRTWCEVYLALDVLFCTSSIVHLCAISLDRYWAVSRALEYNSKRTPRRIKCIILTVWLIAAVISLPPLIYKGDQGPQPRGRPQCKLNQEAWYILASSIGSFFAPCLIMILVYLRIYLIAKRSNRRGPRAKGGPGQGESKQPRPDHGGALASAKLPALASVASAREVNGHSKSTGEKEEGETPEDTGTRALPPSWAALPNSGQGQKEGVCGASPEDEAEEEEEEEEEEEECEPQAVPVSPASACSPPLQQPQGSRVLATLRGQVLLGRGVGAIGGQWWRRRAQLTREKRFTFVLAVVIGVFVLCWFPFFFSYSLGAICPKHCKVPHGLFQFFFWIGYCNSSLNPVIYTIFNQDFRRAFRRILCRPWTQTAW
experimental_details: ADRA2B arrestin agonist assay
Assay type: cell-based
protocol_conditions: CHO-K1 cells stably expressing human ADRA2B; read-out: Beta-Arrestin - Human Alpha2B EC50
experimental_readout: EC50

Q) // Input: Cc1cccc([C@H](Cc2cccc(CO)n2)c2c[nH]cn2)c1C [Compound 147] . Output its EC50 only.
A) > 500 nM

Q) Give EC50 for the following compound: COc1nccc(CC(c2c[nH]cn2)c2cccc3c(C4CC4)noc23)n1 (stereo not drawn) [Compound 357]
A) > 500 nM

Q) # return recorded EC50 for entry Cc1nccc(CC(c2c[nH]cn2)c2cccc3cccnc23)n1 (stereo not drawn) [Compound 341]
A) < 10 nM

Q) Query EC50 for Cc1nccc(CC(c2c[nH]cn2)c2cccc(C)c2Cl)n1 (stereo not drawn) [Compound 157]
A) < 10 nM

Q) Indicate its recorded EC50; the compound in question is COc1c(C)cccc1C(Cc1cc(C)ncn1)c1c[nH]cn1 (stereo not drawn) [Compound 276]
A) 50 to 500 nM

Q) Give the reported value of EC50 for this record: Cc1nsc(CC(c2c[nH]cn2)c2cccc(C)c2C)n1 (stereo not drawn) [Compound 264]
A) 50 to 500 nM

Q) Assign EC50 to the following record: Cc1cccc(C(Cc2cocn2)c2c[nH]cn2)c1F (stereo not drawn) [Compound 368]
A) 50 to 500 nM

Q) Specify EC50 for COc1nccc(CC(c2c[nH]cn2)c2ccccc2S(=O)(=O)N2CCCC2)n1 (stereo not drawn) [Compound 358] and stop.
A) > 500 nM

Q) Provide one value: measured EC50 of COc1nccc(C[C@H](c2c[nH]cn2)c2cccc(F)c2OC)n1 [Compound 183]
A) > 500 nM

* * *

Record form. Attribute: pEC50. Fill in for each entry.
tested_system: human ADRA2B receptor (Homo sapiens)
Construct: expressed in transfected cells
experimental_details: GTPγS agonist assay, ADRA2B receptor
Assay type: biochemical
protocol_conditions: read-out: GTPase - Human Alpha2B EC50
pEC50: −log10 of the molar value.

Q) Under human ADRA2B receptor (Homo sapiens): report pEC50 of Cc1cccc([C@H](Cc2ccccn2)c2cnc[nH]2)c1F [Compound 39] .
A) < 6.30

Q) Provide pEC50, recorded with human ADRA2B receptor (Homo sapiens), of Cc1cccc(C(Cc2ccccn2)c2cnc[nH]2)c1C (stereo not drawn) [Compound 50]
A) < 6.30

Q) Name the recorded pEC50 of Cc1cccc([C@@H](Cc2ccc(=O)[nH]n2)c2cnc[nH]2)c1C [Compound 77] , assay system human ADRA2B receptor (Homo sapiens).
A) > 8.00

Q) Identify measured pEC50 obtained with human ADRA2B receptor (Homo sapiens) for COc1cc(OC(F)(F)F)cc(C(Cc2ccnc(OC)n2)c2c[nH]cn2)c1 (stereo not drawn) [Compound 204] .
A) < 6.30

Q) Please look at FC(F)(F)Oc1ccc(C(Cc2cccnn2)c2c[nH]cn2)cc1 (stereo not drawn) [Compound 220] and tell me its recorded pEC50 on human ADRA2B receptor (Homo sapiens).
A) < 6.30

Q) Enter recorded pEC50 with human ADRA2B receptor (Homo sapiens) for COc1nccc(C[C@@H](c2cnc[nH]2)c2cccc(C)c2C)n1 [Compound 54] here.
A) 6.30 to 7.30

Q) Recall the reported pEC50 of Cc1cccc([C@@H](Cc2ccnc(C(F)(F)F)n2)c2cnc[nH]2)c1C [Compound 73] on human ADRA2B receptor (Homo sapiens) and write it down.
A) < 6.30

Q) Using human ADRA2B receptor (Homo sapiens) as the test system, report measured pEC50 of COc1cccc(C[C@@H](c2cnc[nH]2)c2cccc3c2OCC3)n1 [Compound 17] .
A) 6.30 to 7.30

Q) Tell me its pEC50 on human ADRA2B receptor (Homo sapiens): Cc1cnc(C[C@H](c2cnc[nH]2)c2cccc(C)c2C)nc1 [Compound 74]
A) < 6.30

* * *

Kindly supply the reported EC50 values for the records listed here.
tested_system: human ADRA2B receptor (Homo sapiens, UniProt P18089)
Construct: expressed in transfected cells
experimental_details: ADRA2B arrestin agonist assay
Type: cell-based
protocol_conditions: CHO-K1 cells stably expressing human ADRA2B; read-out: Beta-Arrestin - Human Alpha2B EC50

Q) Jot down EC50 (human ADRA2B receptor (Homo sapiens, UniProt P18089)) of COc1ncncc1CC(c1c[nH]cn1)c1cccc(C)c1C (stereo not drawn) [Compound 275] .
A) 0.01 to 0.05 µM

Q) Quote human ADRA2B receptor (Homo sapiens, UniProt P18089) EC50 for entry Cc1cccc([C@H](Cc2cn(C)nn2)c2c[nH]cn2)c1F [Compound 250] .
A) > 0.5 µM

Q) Output reported EC50 of the molecule COc1c(C)cccc1C(Cc1cc[nH]n1)c1c[nH]cn1 (stereo not drawn) [Compound 242] on human ADRA2B receptor (Homo sapiens, UniProt P18089).
A) > 0.5 µM

Q) Report EC50 under test system human ADRA2B receptor (Homo sapiens, UniProt P18089) for COc1nccc(CC(c2c[nH]cn2)c2cccc(C(F)(F)F)c2C)n1 (stereo not drawn) [Compound 202] .
A) < 0.01 µM

Q) State EC50 on human ADRA2B receptor (Homo sapiens, UniProt P18089). Entry: CNc1ccc(CC(c2c[nH]cn2)c2cccc(C)c2C)cn1 (stereo not drawn) [Compound 270]
A) < 0.01 µM

Q) System human ADRA2B receptor (Homo sapiens, UniProt P18089). Read-out EC50. Item Cc1cccc([C@H](Cc2ccnn2CF)c2c[nH]cn2)c1C [Compound 262] . Report value.
A) 0.01 to 0.05 µM

Q) Report the value of EC50 obtained on human ADRA2B receptor (Homo sapiens, UniProt P18089) for Cc1cccc(C(Cc2ccnc(F)c2)c2c[nH]cn2)c1F (stereo not drawn) [Compound 321] .
A) < 0.01 µM

Q) State, for human ADRA2B receptor (Homo sapiens, UniProt P18089), measured EC50 of the molecule listed here: COCc1nccc(CC(c2c[nH]cn2)c2cccc(C)c2C)n1 (stereo not drawn) [Compound 176]
A) < 0.01 µM

Q) Recall the reported EC50 of COc1cc(CC(c2c[nH]cn2)c2cccc(C)c2C)ccn1 (stereo not drawn) [Compound 274] on human ADRA2B receptor (Homo sapiens, UniProt P18089) and write it down.
A) < 0.01 µM
